test: AUC (0 to infinity) in cynomolgus monkey at 10 mg/kg, po; format: ADME, organism-based, Macaca fascicularis; set-up: dose 10 mg/kg, time infinity, route oral; conditions: in vivo
REPORTED ENDPOINT: AUC(0-inf) (ng·h/mL)
Only the number, expressed in ng·h/mL, is required.

Can you look up the measured AUC(0-inf) of COc1c([C@@H]2O[C@H](CO)[C@@H](F)[C@H](O)[C@H]2O)cc(Cc2ccc3c(c2)OCCO3)c2c1CCO2 for me? 6090

* * *

assay: Half life in dog hepatocytes at 1 uM; type: ADME, cell-based, Canis lupus familiaris, Hepatocyte
REPORTED ENDPOINT: half-life at 1 µM
Could you write the number and then its unit?

Can you look up the measured half-life at 1 µM of COc1c([C@@H]2O[C@H](CO)[C@@H](F)[C@H](O)[C@H]2O)cc(Cc2ccc3c(c2)OCCO3)c2c1CCO2 for me? 8 h

Continue with the next compound.
Can you look up the measured half-life at 1 µM of O=C(O)Cc1ccccc1Nc1c(Cl)cccc1Cl for me? 5.2 h

* * *

target: Sodium/glucose cotransporter 2 (Homo sapiens); experiment: Inhibition of human kidneyl SGLT2 expressed in CHOK1 cells assessed as reduction in Na-dependent [14C]-AMG uptake at 0.3 uM preincubated for 10 mins followed by [14C]-AMG addition measured after 2 hrs by TopCount method relative to control; assay type: cell-based
Collected inhibition values appear next to each entry.
Only the number, expressed in %, is required.

Can you look up the measured inhibition of OC[C@H]1O[C@@H](c2cc(Cc3ccc4c(c3)OCCO4)c(O)c3c2OCC3)[C@H](O)[C@@H](O)[C@@H]1F for me? 26

Can you look up the measured inhibition of Cc1ccc([C@@H]2O[C@H](CO)[C@@H](F)[C@H](O)[C@H]2O)cc1Cc1cc2c(s1)CCN(C#N)C2 for me? 76

More entries:
Can you look up the measured inhibition of Cc1ccc([C@@H]2O[C@H](CO)[C@@H](F)[C@H](O)[C@H]2O)cc1Cc1cc2c(s1)CCN(C(=O)c1nccs1)C2 for me? 73

Can you look up the measured inhibition of Cc1ccc([C@@H]2O[C@H](CO)[C@@H](F)[C@H](O)[C@H]2O)cc1Cc1cc2c(s1)CCN(C(=O)C1CCCC1)C2 for me? 59

* * *

test: Tmax in cynomolgus monkey at 10 mg/kg, po; assay type: ADME, organism-based, Macaca fascicularis; settings: in vivo
REPORTED ENDPOINT: Tmax (h)
Only the number, expressed in h, is required.

Can you look up the measured Tmax of COc1c([C@@H]2O[C@H](CO)[C@@H](F)[C@H](O)[C@H]2O)cc(Cc2ccc3c(c2)OCCO3)c2c1CCO2 for me? 1.33

* * *

Collected remaining at 10 min, 1 µM values appear next to each entry.
assay: Metabolic stability in rat liver microsomes at 1 uM after 10 mins in presence of NADPH; assay type: ADME, microsome; details: read-out: Stability
Only the number, expressed in %, is required.

Here is how some compounds turned out for remaining at 10 min, 1 µM.
Can you look up the measured remaining at 10 min, 1 µM of COc1c([C@@H]2O[C@H](CO)[C@@H](F)[C@H](O)[C@H]2O)cc(Cc2ccc3c(c2)OCCO3)c2c1CCO2 for me? 66

Can you look up the measured remaining at 10 min, 1 µM of Cc1cc(O)c([C@@H]2O[C@H](CO)[C@@H](F)[C@H](O)[C@H]2O)cc1Cc1cc2c(s1)CCN(C(=O)c1nccs1)C2 for me? 91

Can you look up the measured remaining at 10 min, 1 µM of Cc1cc(O)c([C@@H]2O[C@H](CO)[C@@H](F)[C@H](O)[C@H]2O)cc1Cc1cc2c(s1)CCN(C(=O)N1CCCC1)C2 for me? 82

More entries:
Can you look up the measured remaining at 10 min, 1 µM of COc1c(Cc2ccc3c(c2)OCCO3)cc([C@@H]2O[C@H](CO)[C@@H](F)[C@H](O)[C@H]2O)c2c1CCO2 for me? 2

Can you look up the measured remaining at 10 min, 1 µM of CCOC(=O)N1CCc2sc(Cc3cc([C@@H]4O[C@H](CO)[C@@H](F)[C@H](O)[C@H]4O)c(O)cc3C)cc2C1 for me? 78

Can you look up the measured remaining at 10 min, 1 µM of OC[C@H]1O[C@@H](c2cc(Cc3ccc4c(c3)OCCO4)c3c(c2O)CCO3)[C@H](O)[C@@H](O)[C@@H]1F for me? 64

Can you look up the measured remaining at 10 min, 1 µM of Cc1cc(O)c([C@@H]2O[C@H](CO)[C@@H](F)[C@H](O)[C@H]2O)cc1Cc1cc2c(s1)CCN(C#N)C2 for me? 79

Can you look up the measured remaining at 10 min, 1 µM of COc1c([C@@H]2O[C@H](CO)[C@@H](F)[C@H](O)[C@H]2O)cc(Cc2ccc3c(c2)SCCO3)c2c1CCO2 for me? 12

* * *

assay: Half life in Sprague-Dawley rat hepatocytes at 1 uM; format: ADME, cell-based, Hepatocyte
REPORTED ENDPOINT: half-life at 1 µM (h)
Only the number, expressed in h, is required.

Can you look up the measured half-life at 1 µM of O=C(O)Cc1ccccc1Nc1c(Cl)cccc1Cl [DICLOFENAC] for me? 0.8

Continue with the next compound.
Can you look up the measured half-life at 1 µM of COc1c([C@@H]2O[C@H](CO)[C@@H](F)[C@H](O)[C@H]2O)cc(Cc2ccc3c(c2)OCCO3)c2c1CCO2 for me? 1.2

* * *

assay: AUC (0 to infinity) in Sprague-Dawley rat at 10 mg/kg, po; assay type: ADME, organism-based; parameters: dose 10 mg/kg, route oral, time infinity; conditions: in vivo
Collected AUC(0-inf) values appear next to each entry.
Only the number, expressed in ng·h/mL, is required.

Here is how some molecules turned out for AUC(0-inf).
Can you look up the measured AUC(0-inf) of Cc1cc(O)c([C@@H]2O[C@H](CO)[C@@H](F)[C@H](O)[C@H]2O)cc1Cc1cc2c(s1)CCN(C#N)C2 for me? 44.6

Can you look up the measured AUC(0-inf) of OC[C@H]1O[C@@H](c2cc(Cc3ccc4c(c3)OCCO4)c3c(c2O)CCO3)[C@H](O)[C@@H](O)[C@@H]1F for me? 307

More entries:
Can you look up the measured AUC(0-inf) of COc1c([C@@H]2O[C@H](CO)[C@@H](F)[C@H](O)[C@H]2O)cc(Cc2ccc3c(c2)OCCO3)c2c1CCO2 for me? 1600

* * *

Collected remaining at 10 min, 1 µM values appear next to each entry.
assay: Metabolic stability in human liver microsomes at 1 uM after 10 mins in presence of NADPH; format: ADME, microsome; details: read-out: Stability
Only the number, expressed in %, is required.

Can you look up the measured remaining at 10 min, 1 µM of Cc1cc(O)c([C@@H]2O[C@H](CO)[C@@H](F)[C@H](O)[C@H]2O)cc1Cc1cc2c(s1)CCN(C(=O)c1nccs1)C2 for me? 69

Can you look up the measured remaining at 10 min, 1 µM of Cc1cc(O)c([C@@H]2O[C@H](CO)[C@@H](F)[C@H](O)[C@H]2O)cc1Cc1cc2c(s1)CCN(C(=O)N1CCCC1)C2 for me? 71

Can you look up the measured remaining at 10 min, 1 µM of CCOC(=O)N1CCc2sc(Cc3cc([C@@H]4O[C@H](CO)[C@@H](F)[C@H](O)[C@H]4O)c(O)cc3C)cc2C1 for me? 80

Can you look up the measured remaining at 10 min, 1 µM of COc1c([C@@H]2O[C@H](CO)[C@@H](F)[C@H](O)[C@H]2O)cc(Cc2ccc3c(c2)SCCO3)c2c1CCO2 for me? 73

* * *

experiment: Half life in Sprague-Dawley rat at 10 mg/kg, po; type: ADME, organism-based; conditions: in vivo
Collected half-life values appear next to each entry.
Only the number, expressed in min, is required.

Can you look up the measured half-life of Cc1cc(O)c([C@@H]2O[C@H](CO)[C@@H](F)[C@H](O)[C@H]2O)cc1Cc1cc2c(s1)CCN(C#N)C2 for me? 86.4

More entries:
Can you look up the measured half-life of COc1c([C@@H]2O[C@H](CO)[C@@H](F)[C@H](O)[C@H]2O)cc(Cc2ccc3c(c2)OCCO3)c2c1CCO2 for me? 86.4

* * *

test: Clearance in Sprague-Dawley rat at 2 mg/kg, iv; format: ADME, organism-based; conditions: in vivo
Collected clearance values appear next to each entry.
Only the number, expressed in mL/min/kg, is required.

Here is how some molecules turned out for clearance.
Can you look up the measured clearance of OC[C@H]1O[C@@H](c2cc(Cc3ccc4c(c3)OCCO4)c3c(c2O)CCO3)[C@H](O)[C@@H](O)[C@@H]1F for me? 28.1

Can you look up the measured clearance of Cc1cc(O)c([C@@H]2O[C@H](CO)[C@@H](F)[C@H](O)[C@H]2O)cc1Cc1cc2c(s1)CCN(C#N)C2 for me? 149

More entries:
Can you look up the measured clearance of COc1c([C@@H]2O[C@H](CO)[C@@H](F)[C@H](O)[C@H]2O)cc(Cc2ccc3c(c2)OCCO3)c2c1CCO2 for me? 50.9

These entries and their values trace back to ChEMBL document CHEMBL4265969.
